Test system: ducksalad
Experiment: Test B flooded paddy test
Type: in vivo, Heteranthera limosa
Conditions: 250 g ai/ha, Flood; scale of 0 to 100 where 0 is no effect and 100 is complete control
Lab note: cut-off is 70. Strictly less in Plant response rating, Ducksalad is Criterion met. Exactly 70 or more is Criterion not met.

INSERT INTO results (molecule, subjectoftest, answerlabel) VALUES
  ('O=C1NCC(c2ccc3c(c2)OC(F)(F)O3)C1C(=O)Nc1ccccc1C(F)(F)F (racemic)', 'ducksalad', 'Criterion met'),
  ('O=C1NCC(c2ccc(OC(F)(F)F)cc2)C1C(=O)Nc1ccccc1F (racemic)', 'ducksalad', 'Criterion met'),
  ('O=C1NCC(c2ccc(OC(F)(F)F)cc2)C1C(=O)Nc1ccccc1C(F)(F)F (racemic)', 'ducksalad', 'Criterion met'),
  ('O=C1NCC(c2cccc(OC(F)(F)F)c2)C1C(=O)Nc1ccccc1F (stereo not drawn)', 'ducksalad', 'Criterion not met'),
  ('O=C1NCC(c2cc(F)c(F)cc2F)C1C(=O)Nc1ccccc1F (stereo not drawn)', 'ducksalad', 'Criterion not met'),
  ('N#Cc1cccc(C2CNC(=O)C2C(=O)Nc2ccccc2F)c1 (racemic)', 'ducksalad', 'Criterion met'),
  ('COc1cc(C2CNC(=O)C2C(=O)Nc2ccccc2F)ccc1F (racemic)', 'ducksalad', 'Criterion met'),
  ('O=C1NCC(c2cc(F)c(F)cc2F)C1C(=O)Nc1cccc(F)c1F (stereo not drawn)', 'ducksalad', 'Criterion not met'),
  ('O=C1NCC(c2ccc3c(c2)OC(F)(F)O3)C1C(=O)Nc1ccccc1F (stereo not drawn)', 'ducksalad', 'Criterion met');

====

Tested on: barnyardgrass
Assay: Test C flooded paddy test
Format: in vivo, Echinochloa crus-galli
Conditions: Flood; 1000 g ai/ha; scale 0 to 100
Documented Plant response rating, Barnyardgrass across a set of molecules
testReadout: Plant response rating, Barnyardgrass

INSERT INTO measurements (molecule, testreadout, measurednumber) VALUES
  ('O=C1NC[C@H](c2cccc(C(F)(F)F)c2)[C@H]1C(=O)Nc1cccc(F)c1F', 'Plant response rating, Barnyardgrass', 85),
  ('O=C1NC[C@@H](c2cccc(C(F)(F)F)c2)[C@@H]1C(=O)Nc1cccc(F)c1F', 'Plant response rating, Barnyardgrass', 45),
  ('O=C1NCC(c2cccc(C(F)F)c2)C1C(=O)Nc1ccccc1F (racemic)', 'Plant response rating, Barnyardgrass', 75),
  ('O=C1NCC(c2ccc(F)c(F)c2)C1C(=O)Nc1ccc(F)c(F)c1F (centres unmarked)', 'Plant response rating, Barnyardgrass', 70),
  ('O=C1NCC(c2cccc(C(F)(F)F)c2)C1C(=O)Nc1ccccc1Br (racemic)', 'Plant response rating, Barnyardgrass', 65);

====

Test system: barnyardgrass
Assay: Test A pre-/postemergence herbicide test
Type: in vivo, Echinochloa crus-galli
Settings: Postemergence, 125 g ai/ha; 0 to 100 scale, 0 is no effect, 100 is complete control
testReadout: Plant response rating, Barnyardgrass

INSERT INTO assay_data (compound, testreadout, measurednumber) VALUES
  ('COc1ccc(C2CNC(=O)C2C(=O)Nc2cccc(F)c2F)cc1F (racemic) [Compound 198]', 'Plant response rating, Barnyardgrass', 50),
  ('O=C1NCC(c2cccc(C(F)F)c2)C1C(=O)Nc1ccccc1F (racemic) [Compound 210]', 'Plant response rating, Barnyardgrass', 80),
  ('COc1ccc(NC(=O)C2C(=O)NCC2c2cccc(C(F)(F)F)c2)cc1F (racemic) [Compound 188]', 'Plant response rating, Barnyardgrass', 0),
  ('O=C1NCC(c2ccc(Cl)c(Cl)c2)C1C(=O)Nc1ccccc1Cl (racemic) [Compound 273]', 'Plant response rating, Barnyardgrass', 10),
  ('O=C1NCC(c2ccc(Cl)c(Cl)c2)C1C(=O)Nc1ccc(F)cc1F (racemic) [Compound 272]', 'Plant response rating, Barnyardgrass', 50),
  ('O=C1NCC(c2cccc(C(F)F)c2)C1C(=O)Nc1cccc(F)c1F (racemic) [Compound 164]', 'Plant response rating, Barnyardgrass', 90),
  ('O=C1NCC(c2cccc(OC(F)F)c2)C1C(=O)Nc1cccc(F)c1F (centres unmarked) [Compound 224]', 'Plant response rating, Barnyardgrass', 80),
  ('O=C1NCC(c2ccc(F)c(F)c2)C1C(=O)Nc1cccc(C(F)(F)F)n1 (racemic) [Compound 245]', 'Plant response rating, Barnyardgrass', 30);
